Each recorded value in this set is attributed to the NIST ThermoML archive (doi:10.1016/j.fluid.2012.11.013).

Below: a set of entries, each annotated with reported mass density.
# run-parameters: 293.15 K; 20000 kPa; Liquid; Vibrating tube method
API: value field is a number in kg/m3; no unit string.

Look over these answered cases.
compound="CCCC(C)C [2-methylpentane]" recorded_value=673.11
compound="CCC(C)CC [3-methylpentane]" recorded_value=683.39
compound="CCC(C)(C)C [2,2-dimethylbutane]" recorded_value=670.51

Alright, here's another compound for you.
mass density recorded for this compound, CC(C)C(C)C [2,3-dimethylbutane] , is 681.36

* * *

# run-parameters: 303.15 K; 60000 kPa; Liquid; Vibrating tube method
Below: a set of entries, each annotated with reported mass density.
API: value field is a number in kg/m3; no unit string.

Look over these answered cases.
mol=CCC(C)(C)C unit_symbol=kg/m3 recorded_value=694.57
mol=CCCC(C)C unit_symbol=kg/m3 recorded_value=695.84
mol=CC(C)C(C)C unit_symbol=kg/m3 recorded_value=703.95

mass density recorded for this compound, CCC(C)CC , is 705.24

* * *

# run-parameters: 313.15 K; 10000 kPa; Liquid; Vibrating tube method
measurement-type: mass density (kg/m3)
API: value field is a number in kg/m3; no unit string.

Look over these answered cases.
compound="CC(C)C(C)C [2,3-dimethylbutane]" recorded_value=655.04
compound="CCCC(C)C [2-methylpentane]" recorded_value=646.93
compound="CCC(C)CC [3-methylpentane]" recorded_value=657.53

mass density recorded for this compound, CCC(C)(C)C [2,2-dimethylbutane] , is 643.44

* * *

# run-parameters: 308.15 K; 2000 kPa; Liquid; Vibrating tube method
measurement-type: mass density (kg/m3)
API: value field is a number in kg/m3; no unit string.

Look over these answered cases.
mol=CC(C)C(C)C measurement_type="mass density" unit_symbol=kg/m3 recorded_value=650.13
mol=CCCC(C)C measurement_type="mass density" unit_symbol=kg/m3 recorded_value=641.65
mol=CCC(C)(C)C measurement_type="mass density" unit_symbol=kg/m3 recorded_value=637.48

Alright, here's another molecule for you.
mass density recorded for this molecule, CCC(C)CC , is 652.85

* * *

# run-parameters: 283.15 K; 50000 kPa; Liquid; Vibrating tube method
measurement-type: mass density (kg/m3)
API: value field is a number in kg/m3; no unit string.

mol=CC(C)C(C)C recorded_value=710.91
mol=CCC(C)CC recorded_value=712.39
mol=CCC(C)(C)C recorded_value=701.27

Alright, here's another compound for you.
mass density recorded for this compound, CCCC(C)C , is 702.82

* * *

# run-parameters: 328.15 K; 65000 kPa; Liquid; Vibrating tube method
Numbers after ± are expanded uncertainties.
Below: a set of entries, each annotated with reported mass density.

molecule="CC(C)C(C)C [2,3-dimethylbutane]" recorded_value="691.47 ± 1 kg/m3"
molecule="CCC(C)(C)C [2,2-dimethylbutane]" recorded_value="682.59 ± 1.1 kg/m3"
molecule="CCC(C)CC [3-methylpentane]" recorded_value="692.79 ± 1 kg/m3"

Alright, here's another molecule for you.
mass density recorded for this molecule, CCCC(C)C [2-methylpentane] , is 683.41 ± 1 kg/m3

* * *

Below: a set of entries, each annotated with reported mass density.
# run-parameters: 318.15 K; 10000 kPa; Liquid; Vibrating tube method
API: value field is a number in kg/m3; no unit string.

Look over these answered cases.
compound="CCC(C)CC [3-methylpentane]" unit_symbol=kg/m3 recorded_value=653.27
compound="CCCC(C)C [2-methylpentane]" unit_symbol=kg/m3 recorded_value=642.49
compound="CC(C)C(C)C [2,3-dimethylbutane]" unit_symbol=kg/m3 recorded_value=650.89

mass density recorded for this compound, CCC(C)(C)C [2,2-dimethylbutane] , is 639.02
